protocol: NF-kB reporter activators, TNF-alpha stimulated, counter-screen for STAT1 activator project, cell-based, HEK293T, luciferase luminescence (AID 1306);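 further: TNF-alpha given at a submaximal dose yielding about 80% of full reporter signal; values are well signal over median control so 100% means no change and 0% no light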
assayConditions: at 5.7 µM, 100% = TNF-alpha with vehicle only
Some of the results follow. The source made the active and inactive calls.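 How the source made its calls: active means activation above the mean of solvent-only control wells plus 3 SD, set per campaign (cut at about 130% in these data); inactive means the rest.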
Possible outcomes: TRUE for active, FALSE for inactive

>>> print(df.to_string())
                                    compound    cat
 0          O=C(Nc1ccc2c(c1)CCC2)c1ccc(Br)s1   TRUE
 1           CN1C(=O)/C(=C/C=C2\SCCN2C)OC1=S  FALSE
 2  Cc1cc(C)c2nc(NC(=O)C3CCCO3)sc2c1 (stereo not given)   TRUE
 3             c1ccc(Nc2nc(-c3ccncc3)cs2)nc1  FALSE
 4        Cc1ccc(NC(=O)Nc2ccc3oc(C)nc3c2)cc1  FALSE
 5  COc1ccc(C2Nc3ccccc3C(=O)N2c2ccc(Cl)cc2)cc1Cn1cc([N+](=O)[O-])cn1 (stereo not given)  FALSE
 6           Cc1cc2nc(SCCN3CCOCC3)[nH]c2cc1C  FALSE
 7  CCOc1ccc2nc(C(=O)N3CCCC(C)C3)sc2c1 (stereo not given)  FALSE
 8        O=C(NCCCn1ccnc1)c1cc(-c2ccccc2)on1   TRUE
 9  CCc1ccc(NC2Nc3cc(C)nn3S2)cc1 (stereo not given)   TRUE
10  CN(c1ccc(C(=O)NCCC2=CCCCC2)cc1)S(C)(=O)=O  FALSE
11            Clc1ccc(Nc2nc(-c3cccs3)cs2)nc1   TRUE
12          CC(=O)Nc1cccc(-c2cnc3ccccc3n2)c1  FALSE
13     CC(=O)c1sc(N/N=C/c2ccc(C(C)C)cc2)nc1C   TRUE
14       c1cnc(Nc2nc(-c3ccc4ccccc4c3)cs2)nc1   TRUE

###

measuredOn: Nuclear receptor coactivator 3 (Homo sapiens) (UniProt Q9Y6Q9)
Sequence (Q9Y6Q9 whole entry, looked up): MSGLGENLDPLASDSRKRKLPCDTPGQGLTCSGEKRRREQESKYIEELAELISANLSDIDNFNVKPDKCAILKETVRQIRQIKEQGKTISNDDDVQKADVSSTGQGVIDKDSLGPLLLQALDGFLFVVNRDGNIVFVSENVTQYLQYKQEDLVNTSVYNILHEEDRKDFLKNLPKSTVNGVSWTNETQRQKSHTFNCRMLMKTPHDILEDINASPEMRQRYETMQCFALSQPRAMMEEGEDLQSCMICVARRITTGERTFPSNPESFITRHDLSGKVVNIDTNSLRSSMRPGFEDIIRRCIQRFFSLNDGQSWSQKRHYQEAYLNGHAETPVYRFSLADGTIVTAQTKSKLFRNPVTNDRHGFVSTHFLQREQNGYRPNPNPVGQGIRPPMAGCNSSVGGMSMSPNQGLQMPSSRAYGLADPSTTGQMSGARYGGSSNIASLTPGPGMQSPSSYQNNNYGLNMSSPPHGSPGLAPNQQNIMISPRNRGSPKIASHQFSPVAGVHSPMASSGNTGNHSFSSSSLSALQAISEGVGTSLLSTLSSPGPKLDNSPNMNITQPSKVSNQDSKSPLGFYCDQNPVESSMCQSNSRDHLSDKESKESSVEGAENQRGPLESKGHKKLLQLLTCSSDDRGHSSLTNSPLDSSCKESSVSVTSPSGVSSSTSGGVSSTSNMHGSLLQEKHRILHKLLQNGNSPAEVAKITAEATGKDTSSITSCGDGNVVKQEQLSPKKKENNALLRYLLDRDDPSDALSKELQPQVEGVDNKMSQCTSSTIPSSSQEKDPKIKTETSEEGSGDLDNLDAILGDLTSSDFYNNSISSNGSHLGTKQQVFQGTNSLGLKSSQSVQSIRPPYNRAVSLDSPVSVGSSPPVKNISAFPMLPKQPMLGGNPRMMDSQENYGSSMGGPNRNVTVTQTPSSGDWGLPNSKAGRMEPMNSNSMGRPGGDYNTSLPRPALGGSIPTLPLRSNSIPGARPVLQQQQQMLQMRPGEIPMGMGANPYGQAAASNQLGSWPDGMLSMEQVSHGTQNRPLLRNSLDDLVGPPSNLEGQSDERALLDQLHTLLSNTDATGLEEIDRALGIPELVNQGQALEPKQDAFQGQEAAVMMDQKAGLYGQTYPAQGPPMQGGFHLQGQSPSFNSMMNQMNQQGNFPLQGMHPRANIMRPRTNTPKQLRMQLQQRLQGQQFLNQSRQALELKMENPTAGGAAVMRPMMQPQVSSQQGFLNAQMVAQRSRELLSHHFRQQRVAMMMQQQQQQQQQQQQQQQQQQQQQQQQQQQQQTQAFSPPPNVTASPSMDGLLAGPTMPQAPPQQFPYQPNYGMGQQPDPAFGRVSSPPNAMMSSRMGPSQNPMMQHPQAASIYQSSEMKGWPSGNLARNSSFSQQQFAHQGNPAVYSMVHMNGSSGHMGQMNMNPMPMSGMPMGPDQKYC
protocol: SRC3 coactivator transcriptional activity inhibitors, confirmation, cell-based, luminescence, quadruplicate (AID 588792);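 further: 0% = DMSO treated cells and 100% = gossypol at 36 µM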
assayConditions: HEK293 GAL4-SRC3 luciferase reporter, at 3.6 µM, active compounds read high
Tag: Fulfilled if measured inhibition is not below 30%, Not fulfilled if it is.

compound	cat
O=C(CCl)NC1CCCc2ccccc21 (stereo unspecified)	Not fulfilled
Cc1ccc2nc(NNC(=O)c3ccc(S(=O)(=O)N4CCc5ccccc5C4)cc3)sc2c1	Fulfilled
COC(=O)c1ccc2nc(NC(=O)C(C)(C)C)sc2c1	Not fulfilled
CC(C)NC(=O)N(C)C[C@H]1Oc2ccc(NS(=O)(=O)c3ccc(Cl)cc3)cc2CC(=O)N([C@@H](C)CO)C[C@@H]1C	Not fulfilled
COC(=O)C12OCC34C(CC5C(C)=C(O)C(=O)CC5(C)C3C(O)C1O)OC(=O)C(OC(=O)C=C(C)C)C24 (stereo unspecified)	Fulfilled
COc1ccc(N/N=C2/CCCCC2=O)cc1	Not fulfilled
CCOC(=O)C1=C(C)N[C@@]2(O)c3ccccc3C(=O)[C@@]12O	Not fulfilled
CCCCc1nc2ccccc2c(N)c1CCC (tested in a mixture with another compound)	Not fulfilled
CN(C)/C=C/C(=O)c1ccc2noc(-c3ccccc3)c2c1	Fulfilled
CC1(Cc2ccc(F)cc2)C(=O)Nc2ccc(-c3cccnc3)cc21 (stereo unspecified)	Fulfilled
CC(C)C(=O)NC(c1ccco1)c1ccc2cccnc2c1O (stereo unspecified)	Fulfilled
Cc1sc(NC(=O)c2ccco2)c(C(c2cccnc2)N2CCN(c3ccc(F)cc3)CC2)c1C (stereo unspecified)	Not fulfilled
O=C(NC(=S)NNC(=O)c1cc2ccccc2cc1O)c1ccco1	Not fulfilled
Cc1ccc(-n2c(Cl)c(Cl)nc(Cl)c2=O)cc1	Fulfilled
Cc1ccc(S(=O)(=O)/C(=C/Cl)NC(=O)c2ccccc2)cc1	Not fulfilled
CC(=NNC(=S)Nc1ccc(C)cc1)c1ccccn1	Fulfilled
COC(C(=O)C(O)C(C)O)C1Cc2cc3cc(OC4CC(OC5CC(O)C(O)C(C)O5)C(O)C(C)O4)c(C)c(O)c3c(O)c2C(=O)C1OC1CC(OC2CC(OC3CC(O)C(OC)C(C)O3)C(O)C(C)O2)C(O)C(C)O1 (stereo unspecified)	Fulfilled
CN1CC(=O)N2C(c3ccc(Cl)cc3)c3[nH]c4ccccc4c3C[C@H]2C1=O (stereo partly specified)	Fulfilled
CCc1ccc(CN(C)C(=O)c2cc(COc3cccc4cnccc34)on2)cc1	Not fulfilled
COc1ccc(S(=O)(=O)Nc2cc([N+](=O)[O-])ccc2OC)cc1	Not fulfilled
Cc1ccc(O)c(N=Nc2nccs2)c1	Fulfilled
CC(C)(C)C(=O)Nc1ccc(N=Nc2ccccc2)cc1	Fulfilled
Cc1cc(NC2CCCCC2)nc(NCc2ccccc2)n1	Not fulfilled
CCCCC(=O)NC(c1cccs1)c1cc(Cl)c2cccnc2c1O (stereo unspecified)	Fulfilled
OCCCNc1nccc(-c2cc(Nc3cccc(Cl)c3)ncn2)n1	Fulfilled
COc1ccc(Cl)cc1Nc1nc(-c2sc(NC(=O)C(C)(C)C)nc2C)cs1	Not fulfilled
Nc1ncnc2c(C3OC(CO)C(O)C3O)c[nH]c12 (stereo unspecified)	Fulfilled
CCC(C)n1ncn(-c2ccc(N3CCN(c4ccc(O)cc4)CC3)cc2)c1=O (stereo unspecified)	Fulfilled
N=c1ccn(CC(=O)c2ccc(-c3ccccc3)cc2)cc1	Fulfilled
Cc1ccnc(OC(C(=O)O)C(OCc2ccccc2)(c2ccccc2)c2ccc(C(F)(F)F)cc2)n1 (stereo unspecified)	Not fulfilled
CC(=NNC(=S)Nc1cccc(C)c1)c1ccccn1	Fulfilled

###

measuredOn: Nuclear receptor coactivator 2 (Homo sapiens)
protocol: SRC2 coactivator transcriptional activity inhibitors, confirmation, cell-based, luminescence, HEK293, triplicate (AID 652008);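 further: 0% = DMSO-treated cells and 100% = Gossypol at 36 µM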
assayConditions: HEK293 GAL4-SRC2 luciferase reporter, at 8.9 µM, active compounds read high
testReadout: inhibition (%)

                                   compound  units  value
0           Cc1nc2sc(C(N)=O)c(N)c2c2c1CCCC2      %   61.5
1  CC(C)N(CC(=O)Nc1ccc(Cl)cc1C(F)(F)F)C(=O)CCl      %   59.2
2     CC(C)(c1ccc(O)cc1)c1ccc(O)c(C(=O)O)c1      %  -5.54
3          Oc1ccc(CCNc2ncnc3ccc(Cl)cc23)cc1      %   65.6
4      COCCn1c(-c2ccc(Br)cc2)csc1=Nc1cccnc1      %   20.4
5  O=C(NCc1cccnc1)/C(=C\c1ccc(-c2cccc(Cl)c2)o1)S(=O)(=O)c1ccccc1      %   53.1
6  COc1ccc(/C=C2\SC(=S)N(CCC(=O)NC3C=CS(=O)(=O)C3)C2=O)cc1 (stereo not drawn)      %   62.1
7      CC(=O)/C(N=Nc1ccc2c(c1)OCCO2)=C(\C)O      %   65.4

###

A collection of compounds and their measured inhibition
measuredOn: Steroidogenic factor 1 (Homo sapiens)
protocol: SF1 (NR5A1) inverse agonists, counter-screen for LRH-1 inverse agonist project, cell-based, luminescence, high throughput (AID 651614);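 further: cells cotransfected with StAR promoter reporter and SF1 expression vector; 0% = vehicle on cells with receptor and 100% = vehicle on cells lacking receptor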
assayConditions: cell-based SF1 luciferase reporter, at 3.6 µM, active compounds read high
testReadout: inhibition (%)

                                   compound                             measuredon  testreadout  value
0  O=C(c1cccc(Cl)c1)N1CCCC(c2ccc(Cl)cc2)=N1  Steroidogenic factor 1 (Homo sapiens)   inhibition   57.3
1           Cc1cc2oc(=O)cc(C)c2cc1NC(=O)CCl  Steroidogenic factor 1 (Homo sapiens)   inhibition   57.7
2  Nc1ncnc2c(C3OC(CO)C(O)C3O)scc12 (stereo unspecified)  Steroidogenic factor 1 (Homo sapiens)   inhibition   96.5
3  O=C(Nc1ccc(N2CCOCC2)c(Cl)c1)c1ccc([N+](=O)[O-])o1  Steroidogenic factor 1 (Homo sapiens)   inhibition   35.9
4  COc1ccc(NC(=O)COC(=O)CNC(=O)c2cc(OC)c(OC)c(OC)c2)cc1  Steroidogenic factor 1 (Homo sapiens)   inhibition   50.5
5  Cc1sc2ncnc(NCC3COc4ccccc4O3)c2c1C (stereo unspecified)  Steroidogenic factor 1 (Homo sapiens)   inhibition   46.1

###

protocol: VP16 transactivation reporter inhibitors, counter-screen for LRH-1 inverse agonist project, cell-based, luminescence, high throughput (AID 651615)
assayConditions: Gal4-VP16 luciferase reporter cells, at 3.6 µM, active compounds read high
A collection of compounds and their measured inhibition
testReadout: inhibition (%)

In [3]: df
Out[3]:
                                    compound  testreadout  value
 0  CC(C)N1CCc2c(sc(NC(=O)c3ccc([N+](=O)[O-])o3)c2C(N)=O)C1   inhibition  -8.36
 1                  COc1ccc(/C=C/C(=O)O)cc1O   inhibition   2.63
 2       O=C(COc1ccc(Nc2ccccc2)cc1)Nc1ccncc1   inhibition   41.4
 3  Cc1ccc(/C=C2\SC(=S)N(c3c(C)n(C)n(-c4ccccc4)c3=O)C2=O)cc1   inhibition  -2.06
 4                  CC1(C)Cc2ccccc2-c2nnnn21   inhibition  -5.72
 5              COc1cc(NCCCCCCN)c2ncccc2c1OC   inhibition     -3
 6  O=C(c1ccc([N+](=O)[O-])o1)N1CCN(c2nc3c(F)cc(F)cc3s2)CC1   inhibition  -0.11
 7  O=C(Cc1ccc(S(=O)(=O)N2CCCC2)s1)Nc1cccc([N+](=O)[O-])c1   inhibition   1.81
 8  CC(=O)Nc1ccc(Oc2sc(C(=O)c3ccccc3)c(N)c2C#N)cc1   inhibition   7.59
 9  CC(=O)c1ccc(NC(=O)C(C)O/N=C(\N)c2ccccc2)cc1 (centres undefined)   inhibition  -7.19
10  CCCS(=O)(=O)c1cnc(C2COc3ccccc3O2)nc1N (centres undefined)   inhibition   23.1
11  CCn1c(SCC(=O)Nc2ccc(N3CCOCC3)cc2)nnc1-c1ccco1   inhibition   10.2
12  COc1cccc(/C=N/NC(=O)c2c(-c3ccccc3)noc2C)c1O   inhibition   67.5
13  CCC(=O)N1CCN(c2ccc(NC(=O)c3ccc([N+](=O)[O-])o3)cc2Cl)CC1   inhibition  -21.9
